# measured_on: anti-CC49 variable region antibodies in the serum of patient two
# assay_procedure: HPLC, 125I-HuCC49 + serum + 5 Tg competitor; fewer complexes = competitor bound
I'd appreciate it if you could supply percent of complexes values for the items below.
Write down the numeric answer in % and omit the unit.

Query: May I ask what percent of complexes has been recorded for HuCC49 CDR variant L-1,2 (antibody, V domains shown) VH: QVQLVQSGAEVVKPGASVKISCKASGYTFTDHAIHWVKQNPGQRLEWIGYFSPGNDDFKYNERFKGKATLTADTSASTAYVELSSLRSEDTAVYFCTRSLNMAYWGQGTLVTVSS VL: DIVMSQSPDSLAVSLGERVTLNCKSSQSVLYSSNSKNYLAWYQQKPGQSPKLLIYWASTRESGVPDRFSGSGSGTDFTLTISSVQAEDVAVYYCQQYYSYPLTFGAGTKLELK ?
Response: 19.4

Query: And then HuCC49 CDR variant L-1 (antibody, V domains shown) VH: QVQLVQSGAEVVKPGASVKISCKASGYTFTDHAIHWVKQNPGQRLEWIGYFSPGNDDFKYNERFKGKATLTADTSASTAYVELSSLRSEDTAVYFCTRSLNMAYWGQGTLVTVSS VL: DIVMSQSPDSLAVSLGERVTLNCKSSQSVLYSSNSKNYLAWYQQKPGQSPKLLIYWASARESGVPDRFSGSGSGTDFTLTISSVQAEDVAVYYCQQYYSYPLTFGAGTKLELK , what is it?
Response: 10.1

Query: And then HuCC49 CDR variant L-3 (antibody, V domains shown) VH: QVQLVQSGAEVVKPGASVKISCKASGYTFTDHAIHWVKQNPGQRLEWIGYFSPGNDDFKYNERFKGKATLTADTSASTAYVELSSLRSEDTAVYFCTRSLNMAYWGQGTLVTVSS VL: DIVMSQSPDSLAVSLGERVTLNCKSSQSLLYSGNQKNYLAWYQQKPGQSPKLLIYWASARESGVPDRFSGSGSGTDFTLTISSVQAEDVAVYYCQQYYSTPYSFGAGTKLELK , what is it?
Response: 37.6
